test: MTT cytotoxicity assay, IMR90; format: cell-based; settings: human, IMR90 normal fibroblasts, IMR90, 0.01 - 80 μM, 96 h
Metric: IC50 at 96 h

**Q:** # get_value(readout='IC50 at 96 h', item= CC(C)(C)c1cc2cc(NC(=O)c3cccs3)ccc2[nH]1 [SMIP001] )
**A:** 40 to 80 µM

###

Recorded pIC50 for the following compounds
test: MTT cytotoxicity assay, IMR90; assay type: cell-based; conditions: human, IMR90, 0.01 - 40 μM, 72 h
Residues, ends and D or L forms follow the SMILES beside them. *: point of attachment. Cbz = O=C(OCc1ccccc1)*
Note: pIC50 values are expressed as the negative base-10 logarithm of concentration in M.

**Q:** # get_value(readout='pIC50', item= C/C=C(/C)C(=O)O[C@H]1C(C)=C2[C@H]([C@@H]1OC(=O)CCCCCCC)[C@@](C)(OC(C)=O)C[C@H](OC(=O)CCC)[C@@]1(O)[C@H]2OC(=O)[C@@]1(C)O [Thapsigargin, reference compound] )
**A:** 7.51

**Q:** Would you mind doing CC(C)C[C@@H](C=O)NC(=O)[C@H](CC(C)C)NC(=O)[C@H](CC(C)C)NC(=O)OCc1ccccc1 [MG132, reference compound] (Cbz-Leu-Leu-Leu-aldehyde) as well?
**A:** 6.35

###

system: nuclear p27 in LNCaP-S14 cells; type: cell-based, human
Recorded Z score (aver) for the following molecules
Lab note: record just the number, no unit beside it.

Clc1ccccc1C(c1ccccc1)(c1ccccc1)n1ccnc1 [1568F16] :: 2.26
CSc1ccc2c(c1)N(CCC1CCCCN1C)c1ccccc1S2.Cl (centres unmarked) [1568O17] :: 2.51

Could you now consider this next molecule?
**Q:** # get_value(readout='Z score (aver)', item= COC12C(COC(N)=O)C3=C(C(=O)C(C)=C(N)C3=O)N1CC1NC12 (centres unmarked) [503O09] )
**A:** 4.55

###

assay: MTT cytotoxicity assay, IMR90; assay type: cell-based; conditions: human, IMR90 normal fibroblasts, IMR90, 0.01 - 40 μM, 72 h
Metric: IC50 at 72 h

**Q:** # get_value(readout='IC50 at 72 h', item= CC(C)(C)c1cc2cc(NC(=O)c3cccs3)ccc2[nH]1 )
**A:** > 20 µM

###

test system: DU145 cells; assay: MTT cytotoxicity assay, DU145; details: Homo sapiens, DU-145, 96 h, read-out: IC50 (MTT cytotoxicity)
Metric: IC50 (µM)
Please respond with the number in µM and leave the unit unwritten.

**Q:** # get_value(readout='IC50', item= CC(C)(C)c1cc2cc(NC(=O)c3cccs3)ccc2[nH]1 )
**A:** 32.5

###

test system: nuclear p27 in LNCaP-S14 cells; format: cell-based, human
Metric: Z score (aver)
Lab note: record just the number, no unit beside it.

O=C(O)C1CCCNC1 (centres unmarked) [500H10] :: 3.12
N#CC(C#N)=NNc1ccc(OC(F)(F)F)cc1 [1362E11] :: 6.18
CCCCc1ccc(NC(C)=O)c(C)c1 [541G02] :: 7.67
Clc1ccc(COC(Cn2ccnc2)c2ccc(Cl)cc2Cl)c(Cl)c1 (centres unmarked) [1568M15] :: 2.54

Could you now consider this next compound?
**Q:** Provide value of Z score (aver) for this record tested with nuclear p27 in LNCaP-S14 cells: COc1ccc(CCN2CCC(Nc3nc4ccccc4n3Cc3ccc(F)cc3)CC2)cc1 [1568K14]
**A:** 8.76
